The reported measurements were obtained from patent US20100179158A1.

Give measured 1 Assay (20 uM), PDE 4B3 for each item. Keep answers brief.
- Target or system: PDE4B3 (Mus musculus, UniProt Q8VBU5)
- Construct: targets used in the assays are full-length proteins (as opposed to simply the catalytic domain); expressed in transfected cells; host or cells: Schizosaccharomyces pombe, gene integrated at the cgs2 locus
- Sequence (Q8VBU5 1-721): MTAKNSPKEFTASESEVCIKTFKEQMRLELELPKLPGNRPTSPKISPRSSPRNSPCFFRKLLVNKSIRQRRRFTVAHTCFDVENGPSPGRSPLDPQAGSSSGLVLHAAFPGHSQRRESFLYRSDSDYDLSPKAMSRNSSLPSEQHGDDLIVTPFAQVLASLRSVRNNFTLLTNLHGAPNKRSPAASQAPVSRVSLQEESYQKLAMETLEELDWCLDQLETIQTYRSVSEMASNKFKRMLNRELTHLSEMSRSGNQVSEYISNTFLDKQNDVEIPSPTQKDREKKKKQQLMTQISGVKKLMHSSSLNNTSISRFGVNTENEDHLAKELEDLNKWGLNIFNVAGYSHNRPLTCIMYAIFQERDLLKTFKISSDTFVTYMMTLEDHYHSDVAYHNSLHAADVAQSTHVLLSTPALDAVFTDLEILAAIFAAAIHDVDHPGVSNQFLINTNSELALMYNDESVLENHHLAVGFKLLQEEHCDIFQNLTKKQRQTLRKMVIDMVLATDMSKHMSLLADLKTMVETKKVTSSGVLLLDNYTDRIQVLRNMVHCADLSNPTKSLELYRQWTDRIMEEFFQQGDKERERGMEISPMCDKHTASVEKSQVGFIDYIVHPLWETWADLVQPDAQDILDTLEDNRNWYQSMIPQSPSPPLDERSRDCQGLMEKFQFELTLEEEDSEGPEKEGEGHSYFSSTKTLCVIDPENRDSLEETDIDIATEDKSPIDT
- Protocol details: Fission yeast 5FOA growth assay, strain expressing PDE4B3
- Assay type: cell-based, murine
- Condition summary: 20 uM compound, 5FOA growth screen
- Description: High throughput drug screens were carried out at the Broad Institute's Chemical Biology Program screening facility (Broad Institute, Cambridge, Mass.). Depending upon the strain, cultures were pregrown to exponential phase in EMM complete medium containing from 0.5 to 2.5 mM cAMP to repress fbp1-ura4 transcription. […] Starting cell concentrations ranged from 0.5×10^5 to 4×10^5 cells/ml depending on the screening strain. […] Optical densities (OD600) of cultures were measured using a microplate reader. […]
Answers are plain numbers, in ND ND ND ND.

A selection of reference data follows.
{"Compound structure": "COC(=O)C1=C(C)N(c2ccccc2F)C(=O)/C1=C\\c1cccc(OC)c1O", "Target or system": "PDE4B3 (Mus musculus, UniProt Q8VBU5)", "1 Assay (20 uM), PDE 4B3, ND ND ND ND": 24.16}
{"Compound structure": "COC(=O)C1=C(C)N(c2ccccc2)/C(=C/c2cccs2)C1=O", "Target or system": "PDE4B3 (Mus musculus, UniProt Q8VBU5)", "1 Assay (20 uM), PDE 4B3, ND ND ND ND": "−0.61"}

Ask: Fill in reported 1 Assay (20 uM), PDE 4B3 for this entry: `COC(=O)C1=C(C)N(c2ccc(C(C)C)cc2)C(=O)/C1=C\c1cccs1`
Reply: −2.99
